Each recorded value in this set is attributed to PubChem BioAssay AID1032.

target: Peroxisome proliferator-activated receptor gamma (Homo sapiens); assay: compounds enhancing SRC-2 coactivator binding to PPARgamma – biochemical, HTS, primary screen (AID 1032); details: PPARgamma LBD-SRC-2 recruitment, at 8 µM
Screen size: about 200,000 compounds; about 670 (0.34%) were called active. No stated cut-off is given here; in the data, active means activation above about 22%; inactive means the rest. Many of the other results were omitted from the sample, so actives are more common in it than they were.
Result category, one only: active, inactive

// known answers, use as guide
* COC(=O)Cn1c(=NC(=O)c2cc(OC)c(OC)c(OC)c2)sc2cc(OC)ccc21 | inactive
* O=c1c2ccccc2c(-c2ccccc2)nn1Cc1ccccc1 | inactive
* CCOC(=O)c1c(NC(=O)CNC2CCCc3ccccc32)sc(C(N)=O)c1C (stereo unspecified) | inactive
* Cc1cccc2cc(C#N)c(N3CCCC3)nc12 | inactive
* C=CCn1c(-c2sc(-c3ccccc3)nc2C)n[nH]c1=S | inactive

# lookup: test call for OCC1(CCc2ccccc2)CCN(Cc2ccc3nsnc3c2)CC1 active

# lookup: test call for O=C(O)Cc1sc(-c2ccccc2)nc1-c1cccs1 active

# lookup: test call for Cc1ccc(-c2nc(C)sc2CC(=O)OCC(=O)Nc2c(F)cccc2F)cc1 inactive

# lookup: test call for O=C(O)Cc1sc(-c2ccc(C(=O)O)cc2)nc1-c1ccccc1 inactive
